# key: entry, value: EC50
- test-system: T1, membrane-bound full-length human HVEM on stable HVEM-transfected HEK293F cells (clone no. 128) (human, UniProt Q92956 39-283)
- T1 construct: The same cDNA was also expressed on Sf9 insect cells; also called TNFRSF14; CD270
- T1 sequence: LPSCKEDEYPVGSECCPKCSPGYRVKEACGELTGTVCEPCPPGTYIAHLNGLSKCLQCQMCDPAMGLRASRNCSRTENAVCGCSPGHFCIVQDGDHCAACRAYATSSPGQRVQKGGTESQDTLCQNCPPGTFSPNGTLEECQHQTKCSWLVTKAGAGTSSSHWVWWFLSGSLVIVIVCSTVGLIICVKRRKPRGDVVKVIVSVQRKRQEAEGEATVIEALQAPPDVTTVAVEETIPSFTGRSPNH
- test: FACS titration on HVEM-HEK293F, half-maximum binding
Note: a bare number is incomplete; add the unit.

Look over these answered cases.
binder	EC50
mouse anti-human HVEM antibody no. 36H12 (antibody, mouse IgG1, V domains shown, mouse IgG1/kappa; also called 36H12 (mouse)) VH: EVQLQQSGAGLVKPGASVKLSCTASGFNIKDTYMHWVRQRPEQGLEWIGRIDPATANTKYDPKFQGKATLTTDTSSNTAYLQLSSLTSEDTAVYYCVTYGYDVSWFAYWGLGALVTVSA VL: DVLMTQTPLSLPVSLGDQASISCRSSQSIVHSNGITYLEWYLQKPGQSPKLLIYKVSNRFSGVPDRFSGSGSGTDFTLKISRVEAEDLGVYYCFQGSHVPLTFGAGTKLELK	0.43 µg/mL
chimeric mouse/human IgG4/kappa anti-human HVEM antibody no. 45H6 (antibody, V domains shown, 24/25 within the entry; Stabilized human IgG4 (S239P) already in the entry; also called chimeric 45H6) VH: DVQLVESGGGLVQPGGSRKLSCAASGFTFSSFGMHWVRQAPEKGLEWVAYISSGNSNIYYVDTVKGRFTISRDNPKNTLFLQMTSLRSEDTAMYYCARKRAYGDYSGFSMDYWGQGTSVTVSS VL: DIVMTQSQKFMSTSVGDRVSVTCKASQNVDTNVAWYQQKPGQSPKALIYSASYRYSGVPDRFTGSGSGTDFTLTISNVQSEDLAEYFCQQYNKFPLTFGGGTKLEIKR	0.306 µg/mL

Proceeding to the next binder to report its EC50.
For the binder mouse anti-human HVEM antibody no. 45H6 (antibody, mouse IgG1, V domains shown, mouse IgG1/kappa; also called 45H6 (mouse)) VH: DVQLVESGGGLVQPGGSRKLSCAASGFTFSSFGMHWVRQAPEKGLEWVAYISSGNSNIYYVDTVKGRFTISRDNPKNTLFLQMTSLRSEDTAMYYCARKRAYGDYSGFSMDYWGQGTSVTVSS VL: DIVMTQSQKFMSTSVGDRVSVTCKASQNVDTNVAWYQQKPGQSPKALIYSASYRYSGVPDRFTGSGSGTDFTLTISNVQSEDLAEYFCQQYNKFPLTFGGGTKLEIK , give its measured EC50 value.
0.26 µg/mL
